assayed target: Fibroblast growth factor 2 (Homo sapiens) (UniProt P09038)
Sequence (P09038 whole entry, looked up): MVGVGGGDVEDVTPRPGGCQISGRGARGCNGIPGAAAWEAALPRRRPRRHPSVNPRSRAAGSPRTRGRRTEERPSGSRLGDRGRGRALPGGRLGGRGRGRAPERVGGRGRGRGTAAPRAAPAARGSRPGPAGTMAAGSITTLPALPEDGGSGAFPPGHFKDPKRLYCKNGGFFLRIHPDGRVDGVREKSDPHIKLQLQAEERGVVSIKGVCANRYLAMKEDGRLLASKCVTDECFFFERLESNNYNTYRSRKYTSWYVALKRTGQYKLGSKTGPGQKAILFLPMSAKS
method: FGF2 binders on small-molecule microarrays, primary screen, biochemical, small-molecule microarray, 635/667 nm fluorescence (AID 1133)
conditions: small-molecule microarray binding, FGF2, fluorescence 635/667; higher = more signal
composite z-score by entry:
measured parameter: composite z-score

[[record]]
smiles_input = "C=CCOC(=O)[C@H]1[C@@H]2C(=O)O[C@@H](c3ccccc3)[C@@H](c3ccccc3)N2[C@@H](c2ccc(OCCOC(=O)[C@@H]3C[C@@H]4C(=O)N[C@@H](CCCCN(C)C)C(=O)N4[C@@H]3c3ccc(O)cc3)cc2)[C@]12C(=O)Nc1ccc(I)cc12"
assayed_target = "Fibroblast growth factor 2 (Homo sapiens) (UniProt P09038)"
reported_value = 1.57

[[record]]
smiles_input = "COc1ccc(CCNC(=O)[C@@H]2c3ccccc3C(=O)N(C3Cc4ccccc4C3)[C@H]2c2ccc(CO)cc2)cc1"
assayed_target = "Fibroblast growth factor 2 (Homo sapiens) (UniProt P09038)"
reported_value = 0.0201

[[record]]
smiles_input = "O=C1O[C@H](c2ccccc2)[C@H](c2ccccc2)N2[C@H]1[C@@H](C(=O)O)[C@]1(C(=O)Nc3ccc(C#CC4=CCCCC4)cc31)[C@H]2c1ccccc1OCCO"
assayed_target = "Fibroblast growth factor 2 (Homo sapiens) (UniProt P09038)"
reported_value = 1.08

[[record]]
smiles_input = "CCOC(=O)C=Cc1cc([N+](=O)[O-])ccc1O"
assayed_target = "Fibroblast growth factor 2 (Homo sapiens) (UniProt P09038)"
reported_value = -0.652


---

composite z-score by entry:
assayed target: E3 ubiquitin-protein ligase XIAP (Homo sapiens) (UniProt P98170)
Sequence (P98170 whole entry, looked up): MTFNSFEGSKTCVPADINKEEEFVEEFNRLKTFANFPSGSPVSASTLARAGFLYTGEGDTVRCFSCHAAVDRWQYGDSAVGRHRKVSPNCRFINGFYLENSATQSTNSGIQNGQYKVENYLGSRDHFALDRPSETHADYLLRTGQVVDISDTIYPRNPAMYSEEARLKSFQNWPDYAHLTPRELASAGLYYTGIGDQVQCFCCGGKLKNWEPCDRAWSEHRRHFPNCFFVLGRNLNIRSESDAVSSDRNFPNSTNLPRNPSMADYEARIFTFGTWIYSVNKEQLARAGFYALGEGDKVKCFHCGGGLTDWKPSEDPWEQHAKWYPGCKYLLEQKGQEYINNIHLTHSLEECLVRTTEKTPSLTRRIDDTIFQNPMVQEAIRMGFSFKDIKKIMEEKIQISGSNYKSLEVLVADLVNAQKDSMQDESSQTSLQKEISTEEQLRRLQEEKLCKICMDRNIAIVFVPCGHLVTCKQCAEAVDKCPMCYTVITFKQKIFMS
method: XIAP binders, primary screen, biophysical, small-molecule microarray, fluorescence 635 nm (AID 1181);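 also: score merges 667 nm emission and signal to noise over triplicate slides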
conditions: small-molecule microarray binding, higher = more signal
measured parameter: composite z-score

[[record]]
molecule = "COc1ccc(C(O)C2C=CC3C(=O)NC(=O)C3N2Nc2ccccn2)c2ccccc12 (centres undefined)"
measured_parameter = "composite z-score"
reported_value = 0.246

[[record]]
molecule = "COC(=O)[C@@]1(Cc2ccc(OC)cc2)[C@H]2c3cc(C(=O)N4CCCC4)n(Cc4ccc(OC)c(OC)c4)c3C[C@H]2CN1C(=O)c1ccccc1"
measured_parameter = "composite z-score"
reported_value = -0.0541

[[record]]
molecule = "CC(C)(C)OC(=O)CC[C@]1(C(=O)NCC(O)CO)COC(c2ccc(OCCCO)cc2)=N1 (some centres undefined)"
measured_parameter = "composite z-score"
reported_value = -0.181

[[record]]
molecule = "O=C1[C@H]2C=C(Br)[C@H](C[C@@H]2c2ccccc2)[C@@]12CO2"
measured_parameter = "composite z-score"
reported_value = -0.228


---

assayed target: E3 ubiquitin-protein ligase XIAP (Homo sapiens) (UniProt P98170)
method: XIAP binders, primary screen, biophysical, small-molecule microarray, fluorescence 635 nm (AID 1181);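 also: score merges 667 nm emission and signal to noise over triplicate slides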
conditions: small-molecule microarray binding, higher = more signal
Param threshold (-0.007) applies to composite z-score; output 1 when value >= threshold, 0 when value < threshold.

[[record]]
compound = "COc1ccc(C(O)C2C=CC3C(=O)N(c4ccccc4)C(=O)C3N2Nc2ccc(C(C)C)cc2)cc1OCc1ccccc1 (configuration not stated)"
class_assignment = 0

[[record]]
compound = "NCCCCCNC(=O)[C@@H]1C[C@@H]2C(=O)NCC(=O)N2[C@@H]1c1ccc(O)cc1"
class_assignment = 1

[[record]]
compound = "COCCOC(=O)N1C(=O)[C@@]2(c3cc(C#Cc4ccc(OC)cc4)ccc31)[C@H](c1ccc(O)cc1)N1[C@H](c3ccccc3)[C@H](c3ccccc3)OC(=O)[C@H]1[C@@H]2C(=O)NC[C@H](O)c1ccccc1"
class_assignment = 0

[[record]]
compound = "COC(=O)[C@@]1(Cc2ccccc2)[C@H]2c3cc(C(=O)N4CCCC4)n(CC4CC4)c3C[C@H]2CN1C(=O)c1ccccc1"
class_assignment = 1

[[record]]
compound = "CN(C)CCCNC(=O)[C@@]1(c2ccc([N+](=O)[O-])cc2)CC(=O)N(C2CCCCC2)[C@@H]1c1ccc(CO)cc1"
class_assignment = 0

[[record]]
compound = "C=C(CCCC)C(=O)CC[C@H](OC(=O)c1cccnc1)c1ccccc1OCCO"
class_assignment = 1

[[record]]
compound = "COCCCNC(=O)[C@@]1(Cc2ccccc2)N=C(c2ccc(OCCCO)cc2)O[C@H]1c1ccccc1"
class_assignment = 0


---

method: osmotic lysis modulators in infected erythrocytes, primary screen, PSAC antagonist project, cell-based, P. falciparum Indochina, OD700, 3 h (AID 1156)
conditions: higher = more signal, called active from +8 up or from −8 down
Param threshold (0.5) applies to z-score; output met when value >= threshold, not met when value < threshold.

[[record]]
compound = "CN(C)CCCNC(=O)[C@@]1(C)c2ccccc2C(=O)N(Cc2cc(F)cc(C(F)(F)F)c2)[C@H]1c1ccc(CO)cc1"
class_assignment = "met"

[[record]]
compound = "COC(=O)[C@@]1(Cc2ccc(OC)cc2)[C@H]2c3cc(C(=O)N(C)C)n(CCN4CNCC4=O)c3C[C@H]2CN1C(=O)c1ccccc1"
class_assignment = "not met"

[[record]]
compound = "CCC(CC)C(O)C1C=CC2C(=O)N(C)C(=O)C2N1Nc1ccccc1 (centres undefined)"
class_assignment = "not met"

[[record]]
compound = "COCCCN1C(=O)[C@@]2(c3ccc([N+](=O)[O-])cc3)CC(=O)N(C3CCCCC3)[C@@H]2c2ccc(CO)cc21"
class_assignment = "not met"

[[record]]
compound = "O=C1O[C@@H](c2ccccc2)[C@@H](c2ccccc2)N2[C@@H](c3ccccc3OCCO)[C@]3(C(=O)Nc4ccc(C#CC5=CCCCC5)cc43)[C@@H](C(=O)Nc3nc4ccccc4s3)[C@H]12"
class_assignment = "met"

[[record]]
compound = "O=C1O[C@H](c2ccccc2)[C@H](c2ccccc2)N2[C@H]1[C@@H](C(=O)O)[C@]1(C(=O)Nc3ccc(C#CCCO)cc31)[C@H]2c1ccc(O)cc1"
class_assignment = "met"

[[record]]
compound = "COc1ccc(CCNC(=O)[C@@H]2c3ccccc3C(=O)N(C3Cc4ccccc4C3)[C@H]2c2ccc(CO)cc2)cc1"
class_assignment = "not met"

[[record]]
compound = "C=CCOC(=O)[C@H]1[C@@H]2C(=O)O[C@@H](c3ccccc3)[C@@H](c3ccccc3)N2[C@@H](c2ccc(OCCOC(=O)[C@H]3C[C@H]4C(=O)N5CCC[C@H]5C(=O)N4[C@H]3c3ccc(O)cc3)cc2)[C@]12C(=O)Nc1ccc(I)cc12"
class_assignment = "not met"

[[record]]
compound = "COC(=O)[C@@]1(Cc2ccccc2)[C@H]2c3cc(C(=O)N4CCCC4)n(Cc4nc5ccccc5[nH]4)c3C[C@H]2CN1C(=O)c1ccccc1"
class_assignment = "met"

[[record]]
compound = "CC(=O)n1cc(C(O)C2C=CC3C(=O)N(C)C(=O)C3N2Nc2ccccc2)c2ccccc21 (centres undefined)"
class_assignment = "not met"

[[record]]
compound = "COc1ccc([C@H]2C[C@H]3C(Br)=C[C@@H]2C(=O)[C@]32CO2)cc1"
class_assignment = "met"

[[record]]
compound = "O=C1OCCC/C=C\\[C@H]2OC34C=CCN(Cc5ccccc5)C(=O)[C@H]3N(CCCCCCO)C(=O)[C@@H]4C12 (some centres undefined)"
class_assignment = "met"

[[record]]
compound = "O=C(NCC(F)(F)F)[C@@H]1c2ccccc2C(=O)N(C2CCCCC2)[C@H]1c1ccc(CO)cc1"
class_assignment = "not met"

[[record]]
compound = "COC(=O)C(CC#Cc1ccc2c(c1)[C@]1(C(=O)N2)[C@H](C(=O)O)[C@H]2C(=O)O[C@H](c3ccccc3)[C@H](c3ccccc3)N2[C@@H]1c1ccc(O)cc1)C(=O)OC"
class_assignment = "not met"


---

method: binders from COS7 lysate, DM2A8 probe, primary screen, torsin A project, cell lysate, small-molecule microarray, fluorescence 635/667 (AID 1065)
conditions: higher = more signal, COS7 lysate expressing mutant human TOR1A
Hi all, reminder that labels come from composite z-score, split as band 1 (below -0.1), band 2 (-0.1 to below 0.3), band 3 (0.3 or more)

[[record]]
compound = "C=CCOC(=O)[C@@H]1[C@H]2C(=O)O[C@H](c3ccccc3)[C@H](c3ccccc3)N2[C@H](c2ccc(OCCOC(=O)[C@@H]3C[C@@H]4C(=O)N[C@@H](CCCC[N+](C)(C)C)C(=O)N4[C@@H]3c3cccc(OCCO)c3)cc2)[C@@]12C(=O)Nc1ccc(I)cc12"
class_assignment = "band 3"

[[record]]
compound = "O=C1c2ccccc2[C@@]2(Cc3ccccc3N(CC(F)(F)F)C2=O)[C@H](c2ccc(CO)cc2)N1Cc1ccccc1Cl"
class_assignment = "band 1"

[[record]]
compound = "COCCOC(=O)N1C(=O)[C@@]2(c3ccccc31)[C@H](c1ccccc1OCCO)N1[C@H](c3ccccc3)[C@H](c3ccccc3)OC(=O)[C@H]1[C@@H]2C(=O)Nc1nc2ccccc2s1"
class_assignment = "band 3"

[[record]]
compound = "CC(C)(C)OC(=O)CC[C@@]1(C(=O)NCCN2CCOCC2)N=C(c2ccc(OCCCO)cc2)O[C@@H]1c1ccccc1N=[N+]=[N-]"
class_assignment = "band 2"

[[record]]
compound = "COCCCN1C(=O)[C@@]2(Cc3ccccc31)c1ccccc1C(=O)N(Cc1ccccc1C(F)(F)F)[C@H]2c1ccc(CO)cc1"
class_assignment = "band 3"

[[record]]
compound = "O=C1[C@H]2C=C(Br)[C@H](C[C@@H]2OCCCCO)[C@@]12CO2"
class_assignment = "band 1"

[[record]]
compound = "C=CCNC(=O)[C@H]1[C@@H]2C(=O)O[C@@H](c3ccccc3)[C@@H](c3ccccc3)N2[C@@H](c2ccccc2OCCO)[C@]12C(=O)Nc1ccc(C#CC3=CCCCC3)cc12"
class_assignment = "band 3"

[[record]]
compound = "COc1cc(CO)cc(I)c1O[C@H]1C=C(C(=O)NCCO)C[C@@H](N(CCN2CCOCC2)C(=O)C2CCOC2)[C@@H]1O (stereo partly drawn)"
class_assignment = "band 2"

[[record]]
compound = "O=C1OCC=C[C@H]2OC34C=CCN(CCN5CCOCC5)C(=O)[C@H]3N(CCCO)C(=O)[C@@H]4[C@@H]12 (stereo partly drawn)"
class_assignment = "band 1"

[[record]]
compound = "CCN(CC)c1ccc(N2CC=CC34O[C@@H]5/C=C\\CCCOC(=O)C5[C@H]3C(=O)N(CCO)[C@@H]4C2=O)cc1 (stereo partly drawn)"
class_assignment = "band 1"

[[record]]
compound = "[N-]=[N+]=Nc1ccccc1C[C@]1(C(N)=O)N=C(c2ccc(OCCCO)cc2)O[C@H]1c1ccccc1"
class_assignment = "band 3"

[[record]]
compound = "COCCOC(=O)N1C(=O)[C@@]2(c3cc(C#Cc4ccc(OC)cc4)ccc31)[C@H](c1ccc(O)cc1)N1[C@H](c3ccccc3)[C@H](c3ccccc3)OC(=O)[C@H]1[C@@H]2C(=O)NC[C@H](O)c1ccccc1"
class_assignment = "band 2"

[[record]]
compound = "COc1ccc(NN2C(C(O)c3ccc([N+](=O)[O-])cc3)C=CC3C(=O)N(C4CCCCC4)C(=O)C32)cc1 (stereo not drawn)"
class_assignment = "band 1"

